Sourced from paper PMC5540273

# Tested on: ADCK4;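 further: KINOMEscan kinase panel screen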
# MEASUREMENT PARAMETERS: concentration: 1 μM, replicates: in singlicate; n = 1
MEASUREMENT NAME: %Inh (%)
Answers are plain numbers, in %.

Report %Inh for every entry below.
1. COc1cccc(-c2ccc3c(NC(=O)C4CC4)n[nH]c3n2)c1
2. Cl.Cl.NCC(NC(=O)c1cc(-c2ccccc2)c(-c2ccnc3[nH]ccc23)s1)c1ccccc1 (stereo not drawn)

48
89

Report %Inh for every entry below.
1. O=C(Nc1ccccc1F)NC1CCN(c2ccnc(Nc3ccc(F)cc3)n2)CC1
2. c1ccc(Oc2ccc(Nc3ccnc4cc(-c5ccc(CNCCN6CCOCC6)o5)ccc34)cc2)nc1
3. O=C(NC1CCN(c2ccnc(Nc3ccc(F)cc3)n2)C1)c1cc2ccccc2s1 (stereo not drawn)

1: 64; 2: 31; 3: 61

Report %Inh for every entry below.
1. COCCOCCOc1cc2ncc3c4ccc(C#N)cc4[nH]c3c2cc1OC
2. CCS(=O)(=O)c1ccc(OC)c(Nc2nccc(-c3c(-c4cccc(NC(=O)c5c(F)cccc5F)c4)nn4ncccc34)n2)c1
3. O=C(Nc1n[nH]c2cc(-c3ccoc3)ccc12)C1CC1
4. COc1cc(Nc2nccc(-c3c(-c4cccc(NC(=O)c5c(F)cccc5F)c4)nn4ccccc34)n2)cc(OC)c1OC
5. COc1cc(Nc2ncc3c(C)nc(-c4cc5ccccc5[nH]4)n3n2)cc(OC)c1OC
6. CN(C)Cc1ccc(-c2ccc3c(Nc4ccc(Oc5ccccn5)cc4)ccnc3c2)o1
7. O=c1[nH]cc(-c2ccc(N3CCOCC3)cc2)c2sc(-c3cn[nH]c3)cc12

[0, 18, 0, 0, 3, 0, 0]

Report %Inh for every entry below.
1. C[C@@H](Oc1cc(-n2cnc3cc(-c4ccnc(NCCS(C)(=O)=O)c4)ccc32)sc1C(N)=O)c1ccccc1Cl
2. CC(C)(C)c1ccc2nccc(Nc3cccc(O)c3)c2c1

[10, 41]
